Ref: the supplement of paper PMC10567573

B1: MFF (parent)
chain: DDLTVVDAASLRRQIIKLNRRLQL

Variants of: B1
Assay: protein stability index of a GFP-peptide fusion (GPS, HEK-293T) (PSI 1-6); higher = more stable;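 also: lentivirally expressed fusions sorted by FACS into six bins by GFP to DsRed ratio, PSI derived from sequencing read proportions per bin multiplied by bin number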
Conditions: c terminus: a fixed tail appended
Quick rule: protein stability index of at least 2 means yes (1), below that means no (0).

MUTANT_NAME	LABEL_VALUE
I16L	yes (1)
K17T	yes (1)
N19T	yes (1)
I16G	no (0)
A9M	no (0)
